target.entity: human MDM2 (GST-hMDM2 1-188), interaction with biotinylated-p53 (1-83) (Homo sapiens, UniProt Q00987)
Construct: Amino acid residues 1-188 of human MDM2 were expressed; made in house; host or cells: Escherichia coli
Sequence (Q00987 1-188): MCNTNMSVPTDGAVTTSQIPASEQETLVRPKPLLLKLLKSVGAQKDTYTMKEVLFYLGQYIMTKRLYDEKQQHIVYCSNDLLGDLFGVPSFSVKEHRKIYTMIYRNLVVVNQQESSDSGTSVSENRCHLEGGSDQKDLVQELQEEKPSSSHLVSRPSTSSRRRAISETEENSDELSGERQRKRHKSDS
assay.info: improved HTRF assay (HTRF2 assay), inhibition of HDM2-p53 interaction
Format: binding
measurement.context: 0.2 nM GST-hMDM2, 0.5 nM biotinylated-p53, 100 mM KF
Reported pIC50 values are given for each entry in this list.
On this scale, pIC50 is minus log10 of a concentration expressed in M (mol/L).

compound="CC(C)(C)S(=O)(=O)C[C@@H](C1CCC1)N1C(=O)[C@@H](CC(=O)O)O[C@H](c2cccc(Cl)c2)[C@H]1c1ccc(Cl)cc1 (single isomer, unassigned) [Example 272]" assay_result=6.81

For the compound CC[C@@H](CS(=O)(=O)c1ccccn1)N1C(=O)[C@@H](CC(=O)O)O[C@H](c2cccc(Cl)c2)[C@H]1c1ccc(Cl)cc1 (single isomer, unassigned) [Example 203] , what pIC50 is on record?
7.70

Just for reference, patent US9376425B2 is where these values come from.
